Listing of entries alongside the reported pIC50.
subjectOfTest: purified recombinant human PARP (Homo sapiens)
Construct: purchased Trevigan (Gaithersburg, Md.)
assaySummary: PARP enzyme assay (IC50)
Type: biochemical
condition: approximate IC50 values, [3H]NAD, read-out: IC50
Recall that pIC50 is obtained by taking minus log10 of the concentration measured in molar.

Please review the entries below; each comes with its answer.
{"molecule": "O=C1NCCn2c(-c3ccc(F)cc3)nc3cccc1c32", "pIC50": 6.70}
{"molecule": "O=C1NN=Cc2c(Br)[nH]c3cccc1c23", "pIC50": 7.59}
{"molecule": "O=C(NCCN1CCCC1)c1cccc(-c2nc3cccc4c3n2CCNC4=O)c1", "pIC50": 6.49}
{"molecule": "O=c1[nH]c2ccc(N3CCNCC3)nc2c2ccccc12", "pIC50": 7.35}
{"molecule": "O=C1NN=C(CN2CCN(c3ccccn3)CC2)c2c[nH]c3cccc1c23 [drawing 105]", "pIC50": 7.60}

**Q:** What does the data say about its pIC50? Entry: "O=C1NN=Cc2c(-c3ccc(F)cc3)[nH]c3cccc1c23"
**A:** 7.14

**Q:** Consider the molecule shown here: "O=C(O)CCc1nc2cccc3c2n1CCNC3=O" What is its recorded pIC50?
**A:** 5.84

**Q:** Field request: pIC50 | item: "O=C1NCCn2c(-c3ccc(O)cc3O)nc3cccc1c32"
**A:** 6.73

====

subjectOfTest: purified recombinant human PARP (Homo sapiens, UniProt P09874)
Construct: purchased Trevigan (Gaithersburg, Md.)
Sequence (P09874 whole entry): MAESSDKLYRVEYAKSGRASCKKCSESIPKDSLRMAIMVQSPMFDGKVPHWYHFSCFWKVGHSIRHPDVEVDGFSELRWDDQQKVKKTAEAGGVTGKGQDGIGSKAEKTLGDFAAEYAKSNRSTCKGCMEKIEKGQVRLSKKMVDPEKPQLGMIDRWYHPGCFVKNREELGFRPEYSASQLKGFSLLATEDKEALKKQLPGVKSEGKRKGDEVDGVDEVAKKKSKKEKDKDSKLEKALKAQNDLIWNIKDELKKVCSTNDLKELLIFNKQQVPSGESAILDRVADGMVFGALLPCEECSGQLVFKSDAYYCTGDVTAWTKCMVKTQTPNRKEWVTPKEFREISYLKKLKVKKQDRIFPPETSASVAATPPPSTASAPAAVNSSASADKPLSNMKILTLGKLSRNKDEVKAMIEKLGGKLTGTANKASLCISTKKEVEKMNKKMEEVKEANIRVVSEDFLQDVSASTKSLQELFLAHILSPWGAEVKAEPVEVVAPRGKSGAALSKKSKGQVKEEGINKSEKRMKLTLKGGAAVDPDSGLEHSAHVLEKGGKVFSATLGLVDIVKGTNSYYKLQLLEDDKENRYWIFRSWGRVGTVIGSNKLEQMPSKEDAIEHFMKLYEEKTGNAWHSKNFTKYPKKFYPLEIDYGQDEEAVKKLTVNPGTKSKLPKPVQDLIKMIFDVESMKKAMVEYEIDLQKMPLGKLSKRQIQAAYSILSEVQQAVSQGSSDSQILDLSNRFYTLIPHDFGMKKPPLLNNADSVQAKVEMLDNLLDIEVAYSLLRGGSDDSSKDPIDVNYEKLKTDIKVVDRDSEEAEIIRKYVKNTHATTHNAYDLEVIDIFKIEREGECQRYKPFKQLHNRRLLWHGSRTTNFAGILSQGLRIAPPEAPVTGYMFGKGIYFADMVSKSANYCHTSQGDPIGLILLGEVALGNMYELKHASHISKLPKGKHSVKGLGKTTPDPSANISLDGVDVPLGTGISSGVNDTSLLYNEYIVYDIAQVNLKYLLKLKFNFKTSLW
assaySummary: PARP enzyme assay (IC50)
Type: biochemical
condition: approximate IC50 values, [3H]NAD, read-out: IC50
Listed below: pIC50 values for each entry.
Give only the number. pIC50 is defined as minus log10 of concentration in molar units.

Some compounds with known pIC50 results, for comparison:
{"compound": "CCN(CC)Cc1nc2cccc3c2n1CCNC3=O", "subjectOfTest": "purified recombinant human PARP (Homo sapiens, UniProt P09874)", "pIC50": 6.27}
{"compound": "COC1CNC(=O)c2cccc3c2c1cn3C (stereo not drawn)", "subjectOfTest": "purified recombinant human PARP (Homo sapiens, UniProt P09874)", "pIC50": 5.34}
{"compound": "O=C1NCC(c2ccc(F)cc2)c2c[nH]c3cccc1c23 (stereo not drawn)", "subjectOfTest": "purified recombinant human PARP (Homo sapiens, UniProt P09874)", "pIC50": 6.37}
{"compound": "Nc1cnc2c(c1)[nH]c(=O)c1ccccc12", "subjectOfTest": "purified recombinant human PARP (Homo sapiens, UniProt P09874)", "pIC50": 6.74}
{"compound": "CC(C)N(Cc1nc2cccc3c2n1CCNC3=O)C(C)C", "subjectOfTest": "purified recombinant human PARP (Homo sapiens, UniProt P09874)", "pIC50": 6.19}
{"compound": "CN(C)CCN(C)CC1=NNC(=O)c2cccc3[nH]cc1c23", "subjectOfTest": "purified recombinant human PARP (Homo sapiens, UniProt P09874)", "pIC50": 7.46}
{"compound": "O=C(NCCN1CCOCC1)c1cccc(-c2nc3cccc4c3n2CCNC4=O)c1", "subjectOfTest": "purified recombinant human PARP (Homo sapiens, UniProt P09874)", "pIC50": 6.35}
{"compound": "O=C(O)c1ccc(-c2nc3cccc4c3n2CCNC4=O)cc1", "subjectOfTest": "purified recombinant human PARP (Homo sapiens, UniProt P09874)", "pIC50": 5.92}
{"compound": "O=C1NCCn2c(-c3ccc(-c4ccccc4Cl)o3)nc3cccc1c32", "subjectOfTest": "purified recombinant human PARP (Homo sapiens, UniProt P09874)", "pIC50": 6.84}
{"compound": "O=c1[nH]c2ccc(Cl)nc2c2ccccc12", "subjectOfTest": "purified recombinant human PARP (Homo sapiens, UniProt P09874)", "pIC50": 5.68}

**Q:** # pIC50 lookup, item "O=c1[nH]c2ccc(OCc3ccccc3)nc2c2ccccc12"
**A:** 4.70

**Q:** Item "CCCN(CCC)Cc1nc2cccc3c2n1CCNC3=O" has what recorded pIC50?
**A:** 6.69
